Origin of measurements: patent US20170001988A1

System: Huh7.5.1 cells
test_summary: in vitro
condition_label: human
endpoint_label: CC50

Example results:
INPUT: Please respond with reported CC50 (system Huh7.5.1 cells) for CC(C)N1CCN([C@@H](c2ccccc2)c2ccc(Cl)cc2)CC1 [i-Pr (S)] .
OUTPUT: 32.4 µM

INPUT: Please respond with reported CC50 (system Huh7.5.1 cells) for O=C1c2ccccc2C(=O)N1CCOCCN1CCN(C(c2ccccc2)c2ccc(Cl)cc2)CC1 (centres unmarked) .
OUTPUT: > 100 µM

INPUT: Please respond with reported CC50 (system Huh7.5.1 cells) for CN1CCN([C@H](c2ccccc2)c2ccc(Cl)cc2)CC1 [(R)-CCZ] .
OUTPUT: 37.5 µM

INPUT: Please respond with reported CC50 (system Huh7.5.1 cells) for CCCN1CCN([C@@H](c2ccccc2)c2ccc(Cl)cc2)CC1 [n-Pr (S)] .
OUTPUT: 39.7 µM

INPUT: Please respond with reported CC50 (system Huh7.5.1 cells) for NCCOCCOCCOCCOCCN1CCN(C(c2ccccc2)c2ccc(Cl)cc2)CC1 (racemic) [(CH2CH2O)4CH2CH2NH2 (R,S)] .
OUTPUT: 12.2 µM

---
INPUT: Please respond with reported CC50 (system Huh7.5.1 cells) for CC(=O)NCCOCCOCCOCCOCCN1CCN(C(c2ccccc2)c2ccc(Cl)cc2)CC1 (racemic) [(CH2CH2O)4CH2CH2NHC(═O)Me (R,S)] .
OUTPUT: > 100 µM

INPUT: Please respond with reported CC50 (system Huh7.5.1 cells) for CCN1CCN(C2c3ccccc3-c3ccc(Br)cc32)CC1 (centres unmarked) .
OUTPUT: 53.1 µM

INPUT: Please respond with reported CC50 (system Huh7.5.1 cells) for [2H]C([2H])([2H])N1CCN([C@@H](c2ccccc2)c2ccc(Cl)cc2)CC1 [CD3 (S)] .
OUTPUT: 77.9 µM

INPUT: Please respond with reported CC50 (system Huh7.5.1 cells) for Clc1ccc([C@H](c2ccccc2)N2CCNCC2)cc1 [H (S)] .
OUTPUT: 9.31 µM

INPUT: Please respond with reported CC50 (system Huh7.5.1 cells) for Clc1ccc([C@H](c2ccccc2)N2CCN(C3CCCCC3)CC2)cc1 [Cyclohexyl (S)] .
OUTPUT: 12.3 µM

INPUT: Please respond with reported CC50 (system Huh7.5.1 cells) for CCCCN1CCN([C@H](c2ccccc2)c2ccc(Cl)cc2)CC1 [n-Bu (R)] .
OUTPUT: 40.8 µM

INPUT: Please respond with reported CC50 (system Huh7.5.1 cells) for FC(F)(F)CN1CCN([C@H](c2ccccc2)c2ccc(Cl)cc2)CC1 [CF3CH2 (R)] .
OUTPUT: > 100 µM

INPUT: Please respond with reported CC50 (system Huh7.5.1 cells) for FC(F)(F)CN1CCN([C@@H](c2ccccc2)c2ccc(Cl)cc2)CC1 [CF3CH2 (S)] .
OUTPUT: > 100 µM

INPUT: Please respond with reported CC50 (system Huh7.5.1 cells) for CCN1CCN([C@@H](c2ccccc2)c2ccc(Cl)cc2)CC1 [Et (S)] .
OUTPUT: 40 µM

INPUT: Please respond with reported CC50 (system Huh7.5.1 cells) for CCCCN1CCN([C@@H](c2ccccc2)c2ccc(Cl)cc2)CC1 [n-Bu (S)] .
OUTPUT: 31.1 µM

INPUT: Please respond with reported CC50 (system Huh7.5.1 cells) for [2H]C([2H])([2H])CN1CCN([C@@H](c2ccccc2)c2ccc(Cl)cc2)CC1 [CD3CH2 (S)] .
OUTPUT: 71.3 µM

INPUT: Please respond with reported CC50 (system Huh7.5.1 cells) for CC(C)(C)OC(=O)NCCOCCOCCOCCOCCN1CCN(C(c2ccccc2)c2ccc(Cl)cc2)CC1 (racemic) [(CH2CH2O)4(CH2)2NHC(═O)Ot-Bu (R,S)] .
OUTPUT: 19 µM

INPUT: Please respond with reported CC50 (system Huh7.5.1 cells) for CC(=O)N1CCN([C@@H](c2ccccc2)c2ccc(Cl)cc2)CC1 [Acetyl (S)] .
OUTPUT: 91.3 µM

INPUT: Please respond with reported CC50 (system Huh7.5.1 cells) for Clc1ccc(C(c2ccc(Cl)cc2)N2CCOCC2)cc1 .
OUTPUT: 62.1 µM
